procedure_summary: NCI Yeast Anticancer Drug Screen. Data for the sgs1 mgt1 strain (AID 161);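 also: 0% = growth of cultures given vehicle only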
experimental_parameters: S. cerevisiae sgs1 mgt1 strain, at 50.0 µM, hits give high values
The panel holds about 79,000 compounds, 15% with a hit somewhere; the sample as a whole holds those more often.
quantity_kind: growth inhibition (%)
Answers are plain numbers, in %.

# count of solved cases: 6
[
  {
    "compound": "ClC1(Cl)CC1c1ccccc1 (stereo not given)",
    "quantity_kind": "growth inhibition",
    "value_measured": 6.8
  },
  {
    "compound": "O=C1/C(=C/c2ccccc2)N=C(c2ccccc2)N1n1c(-c2ccccc2)nc2ccccc2c1=O",
    "quantity_kind": "growth inhibition",
    "value_measured": 24.4
  },
  {
    "compound": "CC1=C(C)CP(=O)(c2ccccc2)C1",
    "quantity_kind": "growth inhibition",
    "value_measured": -0.7
  },
  {
    "compound": "Cc1c(C)c(C)c(Br)c(C)c1C",
    "quantity_kind": "growth inhibition",
    "value_measured": -14
  },
  {
    "compound": "c1ccc(-c2cn3c(nc4ccccc43)c(-c3ccccc3)n2)cc1",
    "quantity_kind": "growth inhibition",
    "value_measured": -29.1
  },
  {
    "compound": "Cc1nc2ccccc2nc1C",
    "quantity_kind": "growth inhibition",
    "value_measured": -8.85
  }
]

// batch mode: one growth inhibition value per listed entry
1. CN/N=C(\C)CC(=O)Nc1cccc(Cl)c1C
2. CCCCCCCNC(C)=O
3. CC1=NCC(C)S1 (stereo not given)
4. CCNC1(C(N)=O)CCN(Cc2ccccc2)CC1
5. CCCCCCO/N=C\c1c2c(O)c3c(O)c(C)c4c(c3c1O)C(=O)C(C)(O/C=C\C(OC)C(C)C(OC(C)=O)C(C)C(O)C(C)C(O)C(C)/C=C\C=C(\C)C(=O)N2)O4 (stereo not given)
6. Nc1cc2[nH]cnc2c(=O)[nH]1
7. CNC(=O)c1cc(OC)ccc1O

A:
-1.15
3.6
7
-31.1
36.6
32.4
-4.3

// batch mode: one growth inhibition value per listed entry
1. Nc1cnc(N)nc1
2. NC1=NOC(=O)C1c1ccccc1 (stereo not given)
3. CCCNC(=O)/C=C/C(=O)NCCC

A:
-21.6
-10.2
-1.55

====

procedure_summary: NCI Yeast Anticancer Drug Screen. Data for the sgs1 mgt1 strain (AID 161);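 also: 0% = growth of cultures given vehicle only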
experimental_parameters: S. cerevisiae sgs1 mgt1 strain, at 50.0 µM, hits give high values
Compounds without any hit were thinned out: in the full panel of roughly 79,000, 15% have a hit.
quantity_kind: growth inhibition (%)
One number for each entry, in %.

// batch mode: one growth inhibition value per listed entry
1. CC(=O)C1CCN(Cc2ccccc2)C1 (stereo unspecified)
2. Cn1c(=O)c2c(nc(CCNC(=O)c3ccccc3)n2C)n(C)c1=O
3. Cn1c(=O)c2c(nc3n(C)c(=O)c4ccccc4n23)n(C)c1=O
4. O=C(CCCN1CC=C(n2c(=O)[nH]c3ccccc32)CC1)c1cccs1
5. FC12CCC(c3ccccc3)(CC1)CC2
6. O=C(c1ccccc1)C1CCCCN1C(=O)c1ccccc1 (stereo unspecified)

A:
1: 7.15; 2: 11.1; 3: -8.15; 4: 32.4; 5: -4; 6: -4.6

====

procedure_summary: NCI Yeast Anticancer Drug Screen. Data for the bub3 strain (AID 167)
experimental_parameters: S. cerevisiae bub3 mutant strain, at 50.0 µM, hits give high values
This is part of a sample that, as a whole, favours compounds with a hit. Of some 79,000 tested, about 15% had one in any assay.
Field: growth inhibition. Provide a value for each of the molecules that follow.
One number for each entry, in %.

[
  {
    "molecule": "CC1CC(C)OC(c2ccco2)O1 (stereo not drawn)",
    "growth inhibition, %": -15.1
  },
  {
    "molecule": "CC1c2ccccc2-c2ccccc21",
    "growth inhibition, %": -1
  }
]

Shift focus to the following entry.
Q: Query growth inhibition for Clc1cccc(-c2sc(-c3ccsc3)cc2Cc2ccsc2)c1
A: -24.1

# credit: PubChem BioAssay (NCI)
